tested on: SK-OV-3; test: NCI tumour cell line growth inhibition, 48 h
Active and inactive are the calls of the source. Rule as the data show it: active = GI50 up to about 1.1 µM and inactive = higher. Where a SMILES comes first, the peptide text is derived from it. The star is where a group is joined. Boc = CC(C)(C)OC(=O)*; OBn = c1ccc(CO*)cc1
Outcome codes: active, inactive

molecule | categoryLabel
COc1ccc(/C=C/c2cc(OC)cc(OC)c2)cc1 [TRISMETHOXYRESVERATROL] | inactive
COC(=O)C1CCC(=O)N1C(c1ccccc1)c1cc(OC)c(OC)c(OC)c1 (configuration not stated) | inactive
CC(C)(C)/N=N/C(C)(C)N=C=O | inactive
c1cc2c(cc1C(N1CCNCC1)N1CCNCC1)OCO2 | inactive
CCC(C)NC(=S)N/N=C(\C)c1ccccn1 (configuration not stated) | active
O=C(O)c1ccc([C@@H]2C(=O)N(O)[C@@H]3C=CC[C@@H]32)cc1 | inactive
O=C1C2c3[nH]c4ccccc4c3C3CCC(c4ccccc4)CC3C2C(=O)N1c1ccccc1 (configuration not stated) | inactive
CCCc1c(Cl)nc(Cl)nc1Cl | inactive
CC(NS(C)(=O)=O)c1ccccc1 (configuration not stated) | inactive
O=C1C(Cl)N(c2cccc(Cl)c2)C1c1c[nH]c2ccccc12 (configuration not stated) | inactive
O=C1Nc2cccc(Cl)c2/C1=C\c1c(Cl)nc2n1CCS2 | inactive
CC(C)CC(NC(=O)C(Cc1ccccc1)NC(=O)C(Cc1ccccc1)NC(=O)OC(C)(C)C)C(=O)OCc1ccccc1 (stereo not drawn) (Boc-Phe-Phe-Leu-OBn; configuration not given here) | inactive
CC(=O)O[C@]12CCC[C@H]1C1(O)C(O)CCC[C@H]12 (some centres not stated) | inactive
O=C1Cc2c([nH]c3ccccc23)-c2cc(Br)ccc2N1 | inactive
N#Cc1nc(-c2ccsc2)oc1N | inactive
COc1ccc(OC2OC(COC(c3ccccc3)(c3ccc(OC)cc3)c3ccc(OC)cc3)C(O)C(O)C2O)cc1 (configuration not stated) | inactive
COc1nc(NC2OC(COC(C)=O)C(OC(C)=O)C(OC(C)=O)C2OC(C)=O)c2c(OC(C)=O)c(C)c(=O)oc2n1 (configuration not stated) | inactive
COc1cc2oc(=O)ccc2cc1C1OC(=O)C2OC21C (configuration not stated) | inactive
CCC(=O)Nc1ccc(NCC(=O)Nc2ccc(Cl)cc2)cc1 | inactive
N#CC(NCCc1ccccc1)c1ccccc1 (configuration not stated) | inactive
O=Cc1cc2c(o1)C(=O)c1ccccc1C2=O | inactive
CC1=NNC(=O)C1C1(C(=O)O)CC(c2c[nH]c3ccccc23)=NC(=S)N1 (configuration not stated) | inactive

Each recorded value in this set is attributed to ChEMBL document CHEMBL1201862.
